ASSAY TARGET: pooled human IgG (human IgG1,2,3 and 4)
Measured Enzyme activity endpoint: Fc accompanies every entry in the list below.
The figure you give is taken to be in ng/µL; do not add the unit.

Previously resolved entries follow.
protein="PRT-679 (protein) MQITSVWTKGVTPLTPEQFRYNNEDVIHAPYLAHQGWYDITKTFDGKDNLLCGAATAGNMLHWWFDQNKTEIEAYLSKHPEKQKIIFNNQELFDLKEAINTKDSQTNSQLFNYFRDKAFPNLSARQLGVMPDLVLDMFINGYYLNVFKTQSTDVNRPYQDKDKRGGIFDAVFTRGDQTTLLTARHDLKNKGLNEISTIIKQELTEGKALALSHTYANVSISHVINLWGADFNAEGNLEAIYVTDSDANASIGMKKYFVGINAHGHVAISAKKIEGENIGAQVLGLFTLSSGKDIWQKLSLEHHHHHH" parameter_measured="Enzyme activity endpoint: Fc" unit_of_measurement=ng/µL readout_number=327
protein="PRT-531 (protein) MANQEIRYSEDTPSHITSVWTKGVTPPTQFIQNEDVLHAPYIANQGWYDITKTFNGKDDLLCGAATAGNMLHWWFDQNKEQIEAYLKKYPEKQKINFNGEQMFDVKEAIDTKDSQTDSALFNYFRDKAFPNLSTKHLGVMPDHVIDMFINGYRLNLGNHGPTPVKNQTKDLRGGIFDAVFTRGDQSKLLTARHDFKEKTLKEISQLIKQELTEGKALALSHTYANVRINHVINLWGADFNAEGNLEAIYVTDSDSNASIGMKKYYVGVNAAGKVAISAKEIEGDNIGAQVLGLFTLSSGQDIWQQTNLEHHHHHH" parameter_measured="Enzyme activity endpoint: Fc" unit_of_measurement=ng/µL readout_number=212

Could you share which Enzyme activity endpoint: Fc value was measured for PRT-626 (protein) MQITSVWTKGVTPLTPEQFRYNNEDVIHAPYLAHQGWYDITKAFDGKDNLLCGAATAGNMLHWWFDQNKTEIEAYLSKHPEKQKIIFNNQELFDLKAAIDTKDSQTNSQLFNYFRDKAFPNLSARQLGVMPDLVLDMFINGYYLNVFKTQSTDVNRPPDDKDKRGGIFDHVFNRGDQTTLLTARHDLKNKGLNDISTIIKQELTEGRALALSHTYANVSISHVINLWGADFNAEGNLEAIYVTDSDANASIGMKKYFVGINAHGHVAISAKKIEGENIGAQVLGLFTLSSGKDIWQKLSLEHHHHHH ?
388

So what does the record say about Enzyme activity endpoint: Fc for PRT-680 (protein) MQITSVWTKGVTPLTPEQFRYNNEDVIHAPYLPHQGWYDITKAFDGKDNLLCGAATAGNMLHWWFDQNKTEIEAYLSKHPEKQKIIFNNQELFDLRAAINTKDSQTNSALFNYFRDKAFPNLSARQLGVMPDLVLDMFINGYYLNVFKTQSTDVNRPYQDKDKRGGIFDAVFTRGDQTTLLTARHDLKNKGLNDISTIIKQELTEGKALALSHTYANVSISHVINLWGADFNAEGNLEAIYVTDSDANASIGMKKYYVGINAHGHVAISAKKIEGENIGAQVLGLFTLSSGKDIWQKLSLEHHHHHH ?
451
